Cited source: PubChem BioAssay (NCI)

- Tested on: NCI-H23 lung
- test-summary: NCI tumour cell line growth inhibition, 48 h; in the data active means GI50 below about 0.43 µM; inactive means the rest
Labels: active, inactive

>  <compound>
CN(C)c1ccc(N=C(C#N)c2nc(N)nc(N3CCOCC3)n2)cc1

>  <category-label>
inactive

$$$$
>  <compound>
Cc1nc(N=C(N)N)nc2ccc3ccccc3c12

>  <category-label>
inactive

$$$$
>  <compound>
COc1cc2c(c(Br)c1N)-c1cc(Br)c(N)cc1C2=O

>  <category-label>
inactive

$$$$
>  <compound>
C/C=C(\C)C(=O)O[C@@H]1C=CC(=O)O[C@H]1COC(=O)[C@H](C)O

>  <category-label>
inactive

$$$$
>  <compound>
CC[n+]1c(/C=C/c2ccc(N(CCCl)CCCl)cc2)ccc2cc(Br)ccc21

>  <category-label>
inactive

$$$$
>  <compound>
N=C(N)c1ccc(-c2ccc(-c3ccccc3)o2)cc1

>  <category-label>
inactive

$$$$
>  <compound>
C#CCSc1nnnn1-c1ccc(Br)c(C)c1

>  <category-label>
inactive

$$$$
>  <compound>
NCCCNCCCNc1nc2ccccc2c2[nH]c3ccccc3c12

>  <category-label>
active

$$$$
>  <compound>
C=C(CNCCc1ccc(O)cc1)[C@@H]1CC[C@]2(CO)CC[C@]3(C)[C@H](CC[C@@H]4[C@@]5(C)CCC(NCCO)C(C)(C)[C@@H]5CC[C@]43C)[C@@H]12 (some centres undefined)

>  <category-label>
inactive

$$$$
>  <compound>
c1ccc(CNc2nc(Nc3ccc(-c4nc5ccccc5[nH]4)cc3)c3cn[nH]c3n2)cc1

>  <category-label>
inactive

$$$$
>  <compound>
O=C(/C=C/c1cccnc1)/C=C/c1cccnc1

>  <category-label>
inactive

$$$$
>  <compound>
COc1ccc2c(c1)C(=O)/C(=C/c1ccc(OCC(=O)c3ccc(Cl)cc3)cc1)O2

>  <category-label>
inactive

$$$$
>  <compound>
CCN1C(=O)N(CC)C2C1NN=c1s/c(=C\c3ccc([N+](=O)[O-])cc3)c(=O)n12 (centres undefined)

>  <category-label>
inactive

$$$$
>  <compound>
c1ccc(COc2ccc(Nc3ncnc4ccc(-c5ccco5)cc34)cc2)cc1

>  <category-label>
inactive

$$$$
